biological target: human/mouse CD137 chimera 1553 (human/mouse chimera) (UniProt Q07011); experiment: flow cytometry, transfected 293-F cells
relative MFI normalized to full-length human CD137: recorded values
// response body must contain only the number

// solved cases for relative MFI normalized to full-length human CD137 follow
- binder: "1618/1619 (antibody, V domains shown) VH: EVQLLESGGGLVQPGGSLRLSCAASGFTFSYGSMYWVRQAPGKGLEWVSSISSGSGSTYYADSVKGRFTISRDNSKNTLYLQMNSLRAEDTAVYYCARSSYYGSYYSIDYWGQGTLVTVSS VL: DIQMTQSPSSLSASVGDRVTITCRASQSISSYLNWYQQKPGKAPKLLIYAASSLQSGVPSRFSGSGSGTDFTLTISSLQPEDFATYYCQQYYDNLPTFGQGTKLEIK"
  data value: 1.24
- binder: "1626/1627 (antibody, V domains shown) VH: EVQLLESGGGLVQPGGSLRLSCAASGFTFGGYSMYWVRQAPGKGLEWVSSIGGYYYSTYYADSVKGRFTISRDNSKNTLYLQMNSLRAEDTAVYYCARSYYGSIDYWGQGTLVTVSS VL: DIQMTQSPSSLSASVGDRVTITCRASQSISSYLNWYQQKPGKAPKLLIYAASSLQSGVPSRFSGSGSGTDFTLTISSLQPEDFATYYCQQGTGYGPLTFGQGTKLEIK"
  data value: 0.14

relative MFI normalized to full-length human CD137 lookup needed for 1620/1621 (antibody, V domains shown) VH: EVQLLESGGGLVQPGGSLRLSCAASGFTFSGYYMYWVRQAPGKGLEWVSGISSSGSYTYYADSVKGRFTISRDNSKNTLYLQMNSLRAEDTAVYYCARSVGPYFDYWGQGTLVTVSS VL: DIQMTQSPSSLSASVGDRVTITCRASQSISSYLNWYQQKPGKAPKLLIYAASSLQSGVPSRFSGSGSGTDFTLTISSLQPEDFATYYCQQGVGPYTFGQGTKLEIK , thanks.
0.17
